Test system: HOP-62 NSCLC
assay.name: NCI-60 one-dose screen, 48 h (100 = growth as untreated, 0 = no growth, -100 = all killed)
experimental.conditions: 10 µM unless noted
Compounds without any hit were thinned out: in the full panel of roughly 83,000, 20% have a hit.
readout.type: growth (%)
Quick reminder: number only, in %, skip the unit.

CCCCCCCCCCCCCCCCCC(=O)[O][Sn]([CH2]CCC)([CH2]CCC)[CH2]CCC; -89.5
CCOC(=O)c1cnc(SCC)nc1SC#N; 121

For this compound ( Cc1ccc(Nc2cccc3ccccc23)cc1 ), measured growth is 91.9

Form field growth, entry c1ccc2c(N=NSc3ncnc4nc[nH]c34)c3ccccc3nc2c1 : -49.9

Measured growth, O=C1OCC2=C1C(c1ccccc1)c1cc3c(cc1N2CCO)OCO3 (configuration not stated) : 40.3

growth for CC(SC(C)C(=O)N/N=C/c1cccc(Cl)c1)C(=O)N/N=C\c1cccc(Cl)c1 (configuration not stated) is 90.4

Summary for this compound, COc1cc(C2C(C#N)=C(N)Oc3cc4c(cc32)OCO4)cc2c1OCO2 (configuration not stated) : growth is 28.2

Reported growth ( CCCCCCCCOC(=O)C(C)OC(=O)OCCOCCOC(=O)OC(C)C(=O)OCCCCCCCC (configuration not stated) ) = 105

----------
Test system: SN12C renal
assay.name: NCI-60 one-dose screen, 48 h (100 = growth as untreated, 0 = no growth, -100 = all killed)
experimental.conditions: 10 µM unless noted
Compounds without any hit were thinned out: in the full panel of roughly 83,000, 20% have a hit.
Grouping by measured growth is done with the following cut points: lower level: < 60%; middle level: ≥ 60% and < 90%; upper level: ≥ 90%

Below, 5 compounds whose answers are already recorded.
CC(C)(c1ccccc1)c1cc(O)c(C(C)(C)c2ccccc2)cc1O; lower level
O=P(O)(O)C(O)(Cc1cccnc1)P(=O)(O)O; upper level
CCOCCNc1ccc(S(=O)(=O)c2ccc(N)cc2)cc1N; upper level
Cc1cc(-c2ccccc2)on1; upper level
CCN(CC)Cc1cc(Nc2ccnc3ccc(OC)cc23)ccc1O; lower level

Class for Cc1cccc(N=NC(=S)NNc2cccc(C)c2)c1 ? upper level

Category of COc1cc(OC)cc(-c2ccc(-c3ccc(C(=N)N)s3)s2)c1 : lower level

Would you mind sorting NS(=O)(=O)c1ccc(CCn2c(SCC(=O)N/N=C/c3cc4ccccc4[nH]3)nc3ccccc3c2=O)cc1 into the appropriate category? middle level

----------
Tested on: UO-31 renal
assay.name: NCI-60 one-dose screen, 48 h (100 = growth as untreated, 0 = no growth, -100 = all killed)
experimental.conditions: 10 µM unless noted
About 83,000 compounds went through this panel and 20% of them were active in at least one assay; those are over-represented in the sample as a whole.
readout.type: growth (%)
Form entry: value (%) — number only.

Please review the following examples before continuing.
CCOC(=O)Nc1ccc2nc(Sc3ccc(Cl)cc3)sc2c1; 43.9
C[C@@H]1CC2C3CCC4=CC(=O)C=C[C@]4(C)[C@@]3(Cl)[C@@H](O)C[C@]2(C)[C@@]1(OC(=O)c1ccco1)C(=O)CCl (stereo not given in full); 30.5
CC(=O)CC(c1ccc([N+](=O)[O-])cc1)c1c(O)c2ccccc2oc1=O (stereo not given); 76.7
NNc1ccc(S(N)(=O)=O)cc1; 91.6
Cc1ccc2c(C)c3c(ccc4ccccc43)c[n+]2c1; 45.9

Note to self: growth recorded for COc1cc2c(c(OC)c1O)C(=O)C(OC)C(c1ccc(O)c(O)c1)O2 (stereo not given) was 44.8

Documented growth of C=C1C(=O)O[C@H]2[C@H]1CC/C(COC(=O)NCc1cccc(OC)c1)=C\CC[C@@]1(C)O[C@@H]21 : -9.04

Briefly, growth measured for N/C(=N\OC(=O)c1ccccc1)C(C(=O)NOC(=O)c1ccccc1)C1CCCCC1 (stereo not given) : -50.5

compound CCOC(=O)c1cc(N)nc2ccccc12 , growth observed: 103

// recorded growth for COc1cc(/C=C2\CN(C(=O)OC(C)(C)C)C/C(=C\c3ccc(O)c(OC)c3)C2=O)ccc1O : 81

----------
Tested on: DU-145 prostate
assay.name: NCI-60 one-dose screen, 48 h
experimental.conditions: 10 µM unless noted
This is part of a sample that, as a whole, favours compounds with a hit. Of some 83,000 tested, about 20% had one in any assay. The source made the active and inactive calls. Rule for the calls: active = growth percent below 10; inactive = the rest.
Bench note: report the call from class 1 for active, class 0 for inactive

Take a look at these entries with their results.
CC(=O)N1N=C(C2C(=O)N(C)C(=O)N(C)C2=O)CC1c1ccccc1C(=O)O (stereo not given); class 0
COc1ccc(/C(C)=N/NC(=O)c2ccc(S(C)(=O)=O)cc2)cc1OC; class 0
CCCCCCCC/C=C\CCCCCCCC(=O)OCCCCCC; class 0
COc1ccc2c(c1)N(Cc1ccc(Cl)cc1)CCC2N1CCCC1=O (stereo not given); class 0
Clc1ccc(-c2cnc3nonc3n2)s1; class 0

Would you mind telling me which call this test gave CC(C)(C)c1cc(C[P+](c2ccccc2)(c2ccccc2)c2ccccc2)cc(C(C)(C)C)c1O ? class 0

Test call, this compound: CC(C)CCSc1nc(-c2ccc(F)cc2)c(C#N)c(N2CCN(C)CC2)n1 class 0

----------
Tested on: TK-10 renal
assay.name: NCI-60 one-dose screen, 48 h (100 = growth as untreated, 0 = no growth, -100 = all killed)
experimental.conditions: 10 µM unless noted
Compounds without any hit were thinned out: in the full panel of roughly 83,000, 20% have a hit.
Reported values of growth for individual entries
# unit: % | format: bare number

Examples with answers:
CN1C2CCC1/C(=C\c1ccc(Cl)cc1)C(=O)/C2=C/c1ccc(Cl)cc1; 79
Cc1ccc(C(=O)CC(=O)C(F)(F)C(F)(F)C(F)(F)F)s1; 118
Cc1ccncc1NC=O; 102
CCOC(=O)Cn1c(-c2nonc2NC(=O)c2ccccc2F)nc2ccccc21; 66.1
Cc1ccc([C@H]2c3[nH]c4ccccc4c3C[C@H]3C(=O)N(CCCCCCC(=O)NO)CC(=O)N23)cc1; 58.7
CCOC(=O)C1C(=O)C=C(c2cc(OC)c(OC)c(OC)c2)CC1c1sc(N(C)Cc2ccccc2)nc1Cl (stereo not given); 87.4

Sample O=C(Nc1cccc(N=Cc2c(O)ccc3ccccc23)c1)c1ccccc1 ; growth observed: 92.4

Entry CC(C)N(C(=S)SSC(=S)N(C(C)C)C(C)C)C(C)C , growth reported as 100

Briefly, growth measured for O=C(CC(=O)c1cccc(Cl)c1)c1cccc(Cl)c1 : 46.6

response.value for CCN1C(=O)N(CC)C2C1NC(=O)N2/N=C/C=C/c1ccccc1 (stereo not given) (field: growth) = 69.3

----------
Listing: growth of selected compounds
Tested on: OVCAR-5 ovarian
assay.name: NCI-60 one-dose screen, 48 h (100 = growth as untreated, 0 = no growth, -100 = all killed)
experimental.conditions: 10 µM unless noted
Experimental: Growth inhibition of the OVCAR-5 human tumor cell line is measured as a screen for anti-cancer activity. Cells are grown in 96 well plates and exposed to the test compound for 48 hours. Compounds are tested at a single concentration, which is 10^-5 M for most compounds. The reported endpoint is percent growth (GI% or GIPRCNT), where numbers from 0 - 100% represent growth inhibition, and numbers from -100% - 0 represent cell death. For example, a value of 40 represents 60% growth inhibition. […]
The panel holds about 83,000 compounds, 20% with a hit somewhere; the sample as a whole holds those more often.
The figure you give is taken to be in %; do not add the unit.

Cc1cc2nc(CN)[nH]c2cc1C; 112
CCCCCCCCCCCCCC1=NC(C)(C)CN1C(C)C; 39.7
CC(=O)Oc1ccccc1C(=O)Nc1ncc([N+](=O)[O-])s1; 63.3
C=C1C(=O)O[C@H]2[C@H]1CC/C(COC(=O)NCc1c[nH]c3ccc(OC)cc13)=C\CC[C@@]1(C)O[C@@H]21; 45.2
C#CCNc1nc(NCCNC(=O)CCl)nc(N(C)CCCCc2ccccc2)n1; 109
COc1cc(C2CC(c3ccccc3)=NN2C=O)ccc1Oc1nc2c(c(=O)n(C)c(=O)n2C)n1C (stereo unspecified); 97.6
N=C(N)c1ccc(-c2ccc(-c3ccco3)o2)cc1F; 17.8
Nc1cc(C(=O)O)cc(C(=O)O)c1; 105

For the compound Cc1nn(-c2cccc(Cl)c2)c(C)c1N=Nc1ccc(Br)cc1 , the measured growth on OVCAR-5 ovarian was 94.1

Measured growth for this entry COCc1nc(NS(=O)(=O)c2ccc(N)cc2)nc(C)c1Br on OVCAR-5 ovarian: 106

Value sought: growth, system OVCAR-5 ovarian, item CCCCc1nc(Cl)c(C2CC(c3ccc(S(N)(=O)=O)cc3)=NN2c2cc(Cl)cc(Cl)c2)[nH]1 (stereo unspecified) . Result: 65.7

OVCAR-5 ovarian assay, compound Nc1ncnc2c1N=C(c1ccc3c(c1)OCO3)CC(c1ccc(Cl)cc1)N2 (stereo unspecified) , recorded growth = 68.5

Measured on OVCAR-5 ovarian, COc1cccc(-c2nc3sccn3c2-c2ccnc(NCCN3CCCNS3(=O)=O)n2)c1 has a documented growth of 112

Per the reported OVCAR-5 ovarian data, CC(C)OC1OC(OC(C)C)C(OC(C)C)OC1OC(C)C (stereo unspecified) has growth of 102

Entry COc1ccc(-c2cc(-c3cn(-c4cccc(Cl)c4)nc3-c3ccc(OC)cc3)[nH]c(=S)n2)cc1 under OVCAR-5 ovarian had growth of 97
